Reference source for all entries: PubChem BioAssay AID1347426

# PROTOCOL_SUMMARY: Novel Modifiers of Survival Motor Neuron (SMN) Protein: Gene Identification via Genome-wide siRNA Screen;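 note: luminescence tracks full-length SMN protein made from the SMN2 reporter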
# CONDITIONS_USED: HEK293T SMN2-luciferase reporter, siRNA knockdown, 72 h; actives lie on both sides
# Method: Spinal muscular atrophy (SMA) is the most common neuromuscular autosomal recessive disorder and one of the leading genetic causes of infant death. […] Briefly, 1 pmol of each siRNA was spotted to a well of a 384-well plate (Corning, Corning, NY) and 20 microL of serum-free DMEM containing […] of Lipofectamine RNAiMax (Life Technologies, Carlsbad, CA) was then added to each well. […] Raw luminescence reads were normalized to Ambion(R) Silencer(R) Negative Control #2 siRNA, then log10 transformed. […]
About 1,400 (4.5%) of roughly 31,000 sequences were called active. This excerpt belongs to a sample that is enriched for actives.
# median seed-adjusted z-score values compiled below

Previously resolved entries follow.
Need median seed-adjusted z-score of GCAUACGAUUUUAAGCGGATT against PTEN , thanks.
-0.408 (inactive)

Now consider CAGACUUGCUUAAUAGUAATT against ZFP1 and answer again.
0.0391 (inactive)

Now consider GCCUCCAAAGGUUACAUUUTT against UBE2E1 and answer again.
0.888 (inactive)

Further cases:
Need median seed-adjusted z-score of CCCUGAUCCUAUAGCUAUUTT against ART4 , thanks.
-0.0808 (inactive)

Now consider GCUCAGAAGCAGUAAUGCATT against PQBP1 and answer again.
-1.12 (active)

Now consider GAAGGUUUACAAGGACUUATT against KLK7 and answer again.
0 (inactive)

Now consider GUAUAUCAGUUCCAGUUUATT against RANBP3 and answer again.
-0.211 (inactive)

Now consider GUGCUAAAUUUAGCUCAAATT against IL2 and answer again.
0.0694 (inactive)

Now consider GGUUAUAACGGGACGAUUUTT against KIF5C and answer again.
0.283 (inactive)

Now consider CAUUCAAAUUUACCCUGUATT against POLR2H and answer again.
-2.74 (active)

Now consider CAGUGAAAAGUGACGCGGATT against DZIP1 and answer again.
-0.138 (inactive)

Now consider GCACUUCUCUUAAGGACGATT against UNC13B and answer again.
-0.0216 (inactive)
